System: Pseudomonas fluorescens HPPD polypeptide (wild-type and mutants)
Assay: Coupled HPPD activity assay: turnover and residual turnover in crude HPPD polypeptide extracts with and without Cmpd. 1
Assay type: biochemical
Details: absence of Cmpd. 1; changes in absorbance (OD) at 320 nm in the coupled assay, 30 min
ASSAY_METRIC: Turnover

INSERT INTO measurements (molecule, endpoint_result) VALUES
  ('SEQ ID NO:33 (protein, mutant HPPD polypeptide) MADLYENPMGLMGFEFIEFASPTPGTLEPIFEIMGFTKVATHRSKNVHLYRQGEINLILNNEPNSIASYFAAEHGPSVCGMAFRVKDSQKAYNRALELGAQPIHIDTGPMELNLPAIKGIGGAPLYLIDRFGEGSSIYDIDFVYLEGVERNPVGAGLKVIDHLTHNVYRGRMVYWANFYEKLFNFREARYFDIKGEYTGLTSKAMSAPDGMIRIPLNEESSKGAGQIEEFLMQFNGEGIQHVAFLTDDLVKTWDALKKIGMRFMTAPGDEYYEMLEGRLPDHGEPVDQLQARGILLDGSSVEGDKRLLLQIFSERLMGPVFFEFIQRKGDDGFGPHSFKVLFESMERDQVRRGVLTAD', 0.015);
